Measured values drawn from patent US8178506B2 for this set.

- Test system: A549 cells
- method_notes: Cell cycle assay in A549 cells
- Format: cell-based, human
- condition_description: A549 cells, 25 nM, 24 hours; relative to the untreated control cells in that phase
reported_endpoint: % cells in cell cycle phase: S
Returns: string containing the numeric result and its unit.

1) 338836 (antisense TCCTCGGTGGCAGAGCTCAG; all 2'-MOE, all phosphorothioate, methylation of C not given here) [compound 338836]	103%
2) 340350 (antisense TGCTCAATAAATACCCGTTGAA; all 2'-MOE, all phosphorothioate, methylation of C not given here) [compound 340350]	100%
3) 338769 (antisense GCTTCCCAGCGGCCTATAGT; all 2'-MOE, all phosphorothioate, methylation of C not given here) [compound 338769]	94%

Alright, here's another substance for you.
In plain terms, 338637 (antisense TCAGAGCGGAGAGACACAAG; all 2'-MOE, all phosphorothioate, methylation of C not given here) [compound 338637] has a documented % cells in cell cycle phase: S of 99%
